test system: P. falciparum NF54 strain; test: In vitro antiplasmodial screening, 3H-hypoxanthine incorporation assay; type: cell-based, Plasmodium falciparum; details: Plasmodium falciparum, NF54, read-out: Antiplasmodial (Pf) IC50, NF54 strain, erythrocytic stages
pIC50: −log10 of the molar value.

# molecule, readout.relation, pIC50
rows = [
    ("N=C(NO)c1ccc(NC(=S)NOCc2ccccc2)cc1", "=", 5.62),
    ("Nc1ccc(C(=O)NO)cc1 [Compound 3b, 4-Aminobenzenecarbohydroxamic acid]", ">", 6.70),
    ("Cl.N=C(N)c1ccc(C(=O)NO)cc1", ">", 6.70),
    ("CCN(CC)CCCC(C)Nc1ccnc2cc(Cl)ccc12 (centres unmarked) [Chloroquine, chloroquine, reference compound]", "=", 8.70),
    ("N=C(NO)c1ccc(C(=O)NO)cc1", "=", 6.39),
]

###

test: In vitro cytotoxicity with L-6 cells; assay type: cell-based; conditions: rat, L-6 cells (rat skeletal myoblasts)
Hi! Could you tag entries with IC50 at 72 h below 20 µM as class 1, and those at or above as class 0? Much appreciated.

# compound, assigned.class
measured = [
    ("CCN(CC)CCCC(C)Nc1ccnc2cc(Cl)ccc12 (stereo not drawn) [Chloroquine, chloroquine, reference compound]", "class 0"),
    ("Nc1ccc(C(=O)NO)cc1 [Compound 3b, 4-Aminobenzenecarbohydroxamic acid]", "class 1"),
    ("COc1cc([C@@H]2c3cc4c(cc3[C@H](O)[C@H]3COC(=O)[C@H]23)OCO4)cc(OC)c1OC [Podophyllotoxin, reference compound]", "class 1"),
    ("N=C(NO)c1ccc(NC(=S)NOCc2ccccc2)cc1 [Compound 2b]", "class 1"),
    ("N=C(NO)c1ccc(C(=O)NO)cc1 [Compound 1c]", "class 1"),
]
